assay: Tmax in healthy adult human subjects after consumption of 44 mg equivalent of piperine in form of pepper in soup (melahu rasam) by HPLC method; assay type: ADME, organism-based; conditions: in vivo, po
reportedProperty: Tmax (h)

1. O=C(/C=C/C=C/c1ccc2c(c1)OCO2)N1CCCCC1	2.5

---

assay: Cmax in healthy adult human subjects after consumption of 44 mg equivalent of piperine in form of pepper in soup (melahu rasam) by HPLC method; format: ADME, organism-based; parameters: dose 44 mg; conditions: in vivo, po
reportedProperty: Cmax (ng/mL)

1) O=C(/C=C/C=C/c1ccc2c(c1)OCO2)N1CCCCC1 [PIPERINE]	400
